Molecular target: T1, recombinant human TRAIL R1 (DR4)/Fc chimera (human, UniProt O00220 24-239)
T1 construct: bought (R&D Systems); not shown: Fc of the bought chimera (R&D Systems)
T1 sequence: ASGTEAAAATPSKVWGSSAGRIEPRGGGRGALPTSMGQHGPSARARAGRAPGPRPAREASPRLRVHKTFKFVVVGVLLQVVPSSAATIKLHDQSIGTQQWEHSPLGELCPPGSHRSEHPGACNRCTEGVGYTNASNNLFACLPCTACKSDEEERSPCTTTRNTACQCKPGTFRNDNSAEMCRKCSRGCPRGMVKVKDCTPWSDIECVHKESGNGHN
Experiment: SPR (Biacore), ATRIMER
// label 0 strictly below 0.0005 s⁻¹ in koff; label 1 otherwise

binder: 119p94P1B5 (designed binder, ATRIMER from pANA19) EPPTQKPKKIVNAKKDVVNTKMFEELKSRLDTLAQEVALLKEQQALQTVCLKGTKVHMKCFLAFTQTKTFHEASEDCISRGGTLSTPQTGSENDALYEYLRQSVGNEAEIWLGLNGWLEGVGWVDMTGARIAYKNWARHINEQPDGGWPFSNENCAVLSGAANGKWFDKRCRDQLPYICQFGIV
category-label: label 0
//
binder: 119p83P1H4 (designed binder, ATRIMER from pANA19) EPPTQKPKKIVNAKKDVVNTKMFEELKSRLDTLAQEVALLKEQQALQTVCLKGTKVHMKCFLAFTQTKTFHEASEDCISRGGTLSTPQTGSENDALYEYLRQSVGNEAEIWLGLNGWLEGVGWVDMTGARIAYKNWSKVRLEQPDGGWPFSNENCAVLSGAANGKWFDKRCRDQLPYICQFGIV
category-label: label 0
//
binder: 29p61P1E11 (designed binder, ATRIMER; also called 029-61.1E11) EPPTQKPKKIVNAKKDVVNTKMFEELKSRLDTLAQEVALLKEQQALQTVCLKGTKVHMKCFLAFTQTKTFHEASEDCISRGGTLSTPQTGSENDALYEYLRQSVGNEAEIWLGLNGWLEGVGWVDMTGARIAYKNWETEITAQPDGGWPFSNENCAVLSGAANGKWFDKRCRDQLPYICQFGIV
category-label: label 0
//
binder: 119p83P1H1 (designed binder, ATRIMER from pANA19) EPPTQKPKKIVNAKKDVVNTKMFEELKSRLDTLAQEVALLKEQQALQTVCLKGTKVHMKCFLAFTQTKTFHEASEDCISRGGTLSTPQTGSENDALYEYLRQSVGNEAEIWLGLNGWLEGVGWVDMTGARIAYKNWTQRHSGQPDGGWPFSNENCAVLSGAANGKWFDKRCRDQLPYICQFGIV
category-label: label 0
//
binder: 119p94P1B4 (designed binder, ATRIMER from pANA19) EPPTQKPKKIVNAKKDVVNTKMFEELKSRLDTLAQEVALLKEQQALQTVCLKGTKVHMKCFLAFTQTKTFHEASEDCISRGGTLSTPQTGSENDALYEYLRQSVGNEAEIWLGLNGWLEGVGWVDMTGARIAYKNWAEVPFFQPDGGWPFSNENCAVLSGAANGKWFDKRCRDQLPYICQFGIV
category-label: label 1

Ask: Exam item: decide whether the reported koff for 119p94P1C1 (designed binder, ATRIMER from pANA19) EPPTQKPKKIVNAKKDVVNTKMFEELKSRLDTLAQEVALLKEQQALQTVCLKGTKVHMKCFLAFTQTKTFHEASEDCISRGGTLSTPQTGSENDALYEYLRQSVGNEAEIWLGLNGWLEGVGWVDMTGARIAYKNWAISDERQPDGGWPFSNENCAVLSGAANGKWFDKRCRDQLPYICQFGIV is at least 0.0005 s⁻¹.
Result: label 1

Ask: Exam item: decide whether the reported koff for 119p94P1G7 (designed binder, ATRIMER from pANA19) EPPTQKPKKIVNAKKDVVNTKMFEELKSRLDTLAQEVALLKEQQALQTVCLKGTKVHMKCFLAFTQTKTFHEASEDCISRGGTLSTPQTGSENDALYEYLRQSVGNEAEIWLGLNGWLEGVGWVDMTGARIAYKNWGWSARVQPDGGWPFSNENCAVLSGAANGKWFDKRCRDQLPYICQFGIV is at least 0.0005 s⁻¹.
Result: label 1

Ask: Exam item: decide whether the reported koff for 119p94P1F4 (designed binder, ATRIMER from pANA19) EPPTQKPKKIVNAKKDVVNTKMFEELKSRLDTLAQEVALLKEQQALQTVCLKGTKVHMKCFLAFTQTKTFHEASEDCISRGGTLSTPQTGSENDALYEYLRQSVGNEAEIWLGLNGWLEGVGWVDMTGARIAYKNWAAVTMEQPDGGWPFSNENCAVLSGAANGKWFDKRCRDQLPYICQFGIV is at least 0.0005 s⁻¹.
Result: label 1

Ask: Exam item: decide whether the reported koff for 119p94P1D8 (designed binder, ATRIMER from pANA19) EPPTQKPKKIVNAKKDVVNTKMFEELKSRLDTLAQEVALLKEQQALQTVCLKGTKVHMKCFLAFTQTKTFHEASEDCISRGGTLSTPQTGSENDALYEYLRQSVGNEAEIWLGLNGWLEGVGWVDMTGARIAYKNWGWMDSKQPDGGWPFSNENCAVLSGAANGKWFDKRCRDQLPYICQFGIV is at least 0.0005 s⁻¹.
Result: label 1
